- tested.on: enzymatically active free PSA (Homo sapiens, UniProt P07288)
- Construct: required for 50% cleavage of the noted oligopeptides with enzymatically active free PSA
- Sequence (P07288 25-261): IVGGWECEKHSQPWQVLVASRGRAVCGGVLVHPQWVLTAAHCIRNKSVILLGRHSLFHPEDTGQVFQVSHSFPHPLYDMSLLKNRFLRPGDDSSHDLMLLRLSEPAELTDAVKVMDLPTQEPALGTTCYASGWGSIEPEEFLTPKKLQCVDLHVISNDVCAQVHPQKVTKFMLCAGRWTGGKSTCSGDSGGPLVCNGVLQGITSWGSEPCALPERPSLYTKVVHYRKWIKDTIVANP
- assay.notes: Recognition (cleavage) of oligopeptide-doxorubicin conjugates by free PSA, HPLC
- Format: biochemical
- measurement.parameters: DOX conjugate; PSA digestion buffer pH7.4, 140 mM NaCl; molar ratio to PSA 100 to 1
Non-standard residues stand in square brackets, D forms with d. Residues, ends and D or L forms follow the SMILES beside them. *: point of attachment. Doxorubicin(3'-N) = COc1cccc2c1C(=O)c1c(O)c3c(c(O)c1C2=O)C[C@@](O)(C(=O)CO)C[C@@H]3O[C@H]1C[C@H](N*)[C@H](O)[C@H](C)O1; X4 = COCCOCCOCCOCCOCCOCCOCC(=O)*; Chg = N[C@H](C(=O)O)C1CCCCC1
metric.name: Time to 50% Substrate Cleavage by York PSA (min)

{"columns": ["molecule", "result.unit", "recorded.number"],
 "data": [
  ["COCCOCCOCCOCCOCCOCCOCC(=O)N[C@@H](C)C(=O)N[C@@H](CO)C(=O)N[C@H](C(=O)N[C@@H](CCC(N)=O)C(=O)N[C@@H](CO)C(=O)N[C@@H](CC(C)C)C(=O)N[C@H]1C[C@H](O[C@H]2C[C@](O)(C(=O)CO)Cc3c(O)c4c(c(O)c32)C(=O)c2c(OC)cccc2C4=O)O[C@@H](C)[C@H]1O)C1CCCCC1 [PEG(6)-ASChgQ-SL-DOX (3′), PEG(6)-AlaSerChgGln-SerLeu-DOX (3′)] (X4-AS[Chg]QSL-{Doxorubicin(3'-N)})", "min", 160]
]}
